Sourced from PubChem BioAssay AID602410

# measurement.target: Potassium channel subfamily K member 3 (Homo sapiens) (UniProt O14649)
# Sequence (O14649 whole entry, looked up): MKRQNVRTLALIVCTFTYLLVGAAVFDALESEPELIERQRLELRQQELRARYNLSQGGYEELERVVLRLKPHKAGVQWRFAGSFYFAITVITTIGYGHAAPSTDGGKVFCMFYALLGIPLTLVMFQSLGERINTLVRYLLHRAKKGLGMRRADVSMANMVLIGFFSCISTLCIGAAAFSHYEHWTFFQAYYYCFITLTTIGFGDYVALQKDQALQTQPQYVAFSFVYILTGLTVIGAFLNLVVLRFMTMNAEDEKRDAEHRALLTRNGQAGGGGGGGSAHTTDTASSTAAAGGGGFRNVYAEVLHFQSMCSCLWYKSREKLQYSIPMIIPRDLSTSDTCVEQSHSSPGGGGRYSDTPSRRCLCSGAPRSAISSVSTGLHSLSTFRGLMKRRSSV
# assay.procedure: human KCNK3 channel inhibitors, primary screen, CHO cells, FluxOR thallium flux, B-score (AID 602410);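 for B-score: more negative B-score means stronger inhibition of thallium flux through KCNK3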
# particulars: FluxOR fluorescence, at 10 µM
The whole screen tested about 340,000 compounds, of which about 2,800 (0.82%) were called active.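 Rule for the calls: active = B-score under library mean minus 4 SD, starting fluorescence ratio at most library mean plus 5 SD; inactive = the rest.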 This excerpt belongs to a sample that is enriched for actives.
Permitted responses: active, inactive

Given c1ccc2c(NCC3CCCO3)nc(-c3ccncc3)nc2c1 (centres undefined) , state the outcome it received in this test. inactive

Given "Cc1cccc(N=C2NC(=O)CS2)c1C" , state the outcome it received in this test. inactive

Given "Cc1ccc(SCC(=O)Nc2ccc3c(c2)OCCO3)cc1" , state the outcome it received in this test. inactive

Given CCOc1ccc2[nH]c(=O)c(CN(Cc3nnnn3Cc3ccccc3)CC3CCCO3)cc2c1 (centres undefined) , state the outcome it received in this test. inactive

Given Clc1cccc(-c2nc(NCC3CCCO3)c3ccccc3n2)c1 (centres undefined) , state the outcome it received in this test. active

====

# measurement.target: Potassium channel subfamily K member 3 (Homo sapiens)
# assay.procedure: human KCNK3 channel inhibitors, primary screen, CHO cells, FluxOR thallium flux, B-score (AID 602410)
# particulars: FluxOR fluorescence, at 10 µM
Among all 340,000 compounds or so, about 2,800 (0.82%) were called active.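 The calls were made as follows: active = B-score under library mean minus 4 SD, starting fluorescence ratio at most library mean plus 5 SD; inactive = the rest.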 The sample as a whole holds a higher share of actives than the screen did.
Permitted responses: label 1 (active), label 0 (inactive)

>>> category("Cc1nn(CC(=O)Nc2nc3ccccc3s2)c(C)c1[N+](=O)[O-]")
"label 1"
>>> category("COc1ccc(-n2c(O)c(C=NCC(c3ccco3)N3CCCC3)c3ccccc3c2=O)cc1OC (stereo not drawn)")
"label 0"

Now turn to the next compound.
Given "COc1ccccc1CN1CCN(C(c2ccccc2)c2ccccc2)CC1" , state the outcome it received in this test. label 0

====

# measurement.target: Potassium channel subfamily K member 3 (Homo sapiens) (UniProt O14649)
# assay.procedure: human KCNK3 channel inhibitors, primary screen, CHO cells, FluxOR thallium flux, B-score (AID 602410)
# particulars: FluxOR fluorescence, at 10 µM
The campaign covered roughly 340,000 compounds. About 2,800 (0.82%) were called active.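 The calls were made as follows: active = B-score under library mean minus 4 SD, starting fluorescence ratio at most library mean plus 5 SD; inactive = the rest.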 Many of the other results were omitted from the sample, so actives are more common in it than they were.
Permitted responses: t = active, f = inactive

Completed entries (count: 10):
>>> category("O=C(Nc1ccccc1N1CCCC1)c1ccc(F)c(S(=O)(=O)N2CCOCC2)c1")
"f"
>>> category("COc1ccc(-c2cc(C(=O)N(C)CC(=O)Nc3ccccc3Cl)c3ccccc3n2)cc1OC")
"f"
>>> category("COc1ccc(CN(C)C(=O)c2cc(-c3ccc(C)cc3C)nc3ccccc23)c(OC)c1OC")
"t"
>>> category("O=C(Nc1ccccc1N1CCOCC1)c1ccncc1")
"f"
>>> category("Cc1c(C(=O)NC2CCCCC2)oc2ccccc12")
"f"
>>> category("COc1ccc(-c2cc(C(=O)N(C)Cc3ccc(OC)c(OC)c3OC)c3ccccc3n2)cc1OC")
"f"
>>> category("Cc1cccc(C(=O)NC(=S)N2CCN(c3ccc([N+](=O)[O-])cc3)CC2)c1")
"f"
>>> category("O=C(CNS(=O)(=O)c1ccccc1)NCC(=O)OCc1ccccc1F")
"f"
>>> category("O=C(COC(=O)CNS(=O)(=O)c1ccccc1)NC12CC3CC(CC(C3)C1)C2")
"f"
>>> category("O=C(NC(=S)Nc1ccccc1N1CCCCC1)c1ccc(F)cc1")
"f"

Now turn to the next compound.
Given "CC1(C)Cc2ccccc2-c2nnc(-c3cccc(O)c3)n21" , state the outcome it received in this test. f

====

# measurement.target: Potassium channel subfamily K member 3 (Homo sapiens)
# assay.procedure: human KCNK3 channel inhibitors, primary screen, CHO cells, FluxOR thallium flux, B-score (AID 602410)
# particulars: FluxOR fluorescence, at 10 µM
About 2,800 (0.82%) of roughly 340,000 compounds were called active.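 How the source made its calls: active means B-score under library mean minus 4 SD, starting fluorescence ratio at most library mean plus 5 SD; inactive means the rest.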 Many of the other results were omitted from the sample, so actives are more common in it than they were.
Permitted responses: active, inactive

>>> category("CC(C)CCNC(=O)CN(C(=O)Cn1nnc(-c2ccc(F)cc2)n1)C1CCCC1")
"inactive"

Given "CN(C)CCN(C(=O)C1CCCCC1)c1nc2cc3c(cc2s1)OCO3" , state the outcome it received in this test. inactive

Given "CCOc1ccc(CN(Cc2ccco2)S(=O)(=O)c2ccc(-n3cnnn3)c(OC)c2)cc1" , state the outcome it received in this test. inactive

Given "CC(=O)c1c(C)[nH]c(C(=O)Nc2cc(S(=O)(=O)N(C)C)ccc2C)c1C" , state the outcome it received in this test. inactive

Given "O=S(=O)(c1cccs1)N1CCN(CCOc2ccccc2)CC1" , state the outcome it received in this test. inactive

Given "Cc1ccc(S(=O)(=O)NNC(=S)NC(C)(C)C)cc1" , state the outcome it received in this test. inactive

Given CN(C(=O)Cn1nnc(-c2ccc(F)cc2)n1)C1CCS(=O)(=O)C1 (stereo unspecified) , state the outcome it received in this test. inactive

Given "CCOC(=O)[C@@H]1[C@H]2COc3ccc(Br)cc3[C@H]2N2C(=O)N(c3ccc(C)cc3)C(=O)[C@@]12C" , state the outcome it received in this test. inactive

Given "COc1ccc(Cl)cc1C=CC=Nc1ccc(S(N)(=O)=O)cc1" , state the outcome it received in this test. inactive

Given "CC(C)N(C(=O)CN1CCN(S(=O)(=O)c2ccc(Br)s2)CC1)C(C)C" , state the outcome it received in this test. inactive

Given "Cc1cccc(NC(=O)CN2CCCN(S(=O)(=O)c3ccc(Br)s3)CC2)c1" , state the outcome it received in this test. active

====

# measurement.target: Potassium channel subfamily K member 3 (Homo sapiens) (UniProt O14649)
# assay.procedure: human KCNK3 channel inhibitors, primary screen, CHO cells, FluxOR thallium flux, B-score (AID 602410);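 for B-score: more negative B-score means stronger inhibition of thallium flux through KCNK3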
# particulars: FluxOR fluorescence, at 10 µM
In all, about 340,000 compounds went through this assay and about 2,800 (0.82%) were called active.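 Rule for the calls: active = B-score under library mean minus 4 SD, starting fluorescence ratio at most library mean plus 5 SD; inactive = the rest.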 For the sample, actives were picked, then their nearest neighbours and some compounds at random.
Permitted responses: True (active), False (inactive)

Completed entries (count: 3):
>>> category("CCOC(=O)N1CCN(Cc2nc3cc(NC(=O)CC)ccc3n2CC)CC1")
"False"
>>> category("O=C(NCc1ccco1)C(=O)c1cn(CC(=O)N2CCCCCC2)c2ccccc12")
"False"
>>> category("O=C(NC1CC1)C1CCCN(C(=O)NC2CCCCC2)C1 (stereo unspecified)")
"False"

Given COc1ccccc1N1CCC(N2CCN(CC(C)(C)C)C(CCO)C2)CC1 (stereo unspecified) , state the outcome it received in this test. False

Given "CCN(CC(=O)NCc1ccc(F)cc1)S(=O)(=O)c1ccc(Cl)s1" , state the outcome it received in this test. False

Given "CN1c2ccc(C=O)c3c(C=O)ccc(c23)N(C)C1(C)C" , state the outcome it received in this test. True

Given "O=C(O)Cc1csc(NC(=O)CSc2nnnn2-c2ccc(O)cc2)n1" , state the outcome it received in this test. False

Given "O=C(c1cc(-c2ccc(O)cc2)on1)N1CCOCC1" , state the outcome it received in this test. False

====

# measurement.target: Potassium channel subfamily K member 3 (Homo sapiens) (UniProt O14649)
# assay.procedure: human KCNK3 channel inhibitors, primary screen, CHO cells, FluxOR thallium flux, B-score (AID 602410);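 for B-score: more negative B-score means stronger inhibition of thallium flux through KCNK3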
# particulars: FluxOR fluorescence, at 10 µM; active compounds read low
Among all 340,000 compounds or so, about 2,800 (0.82%) were called active. The entries come from a sample that favours actives as a whole.
property.measured: B-score

>>> result_value("COc1ccc(S(=O)(=O)NCCOc2ccccc2)cc1F")
"inactive"
>>> result_value("CC(NC(=O)Cn1cc(C(F)(F)F)cc(Cl)c1=O)c1ccccc1 (stereo not drawn)")
"inactive"
>>> result_value("CCCc1cc(=O)[nH]c(SCC(=O)N2CCN(S(=O)(=O)c3ccc(C)cc3C)CC2)n1")
"inactive"

====

# measurement.target: Potassium channel subfamily K member 3 (Homo sapiens) (UniProt O14649)
# assay.procedure: human KCNK3 channel inhibitors, primary screen, CHO cells, FluxOR thallium flux, B-score (AID 602410);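 for B-score: more negative B-score means stronger inhibition of thallium flux through KCNK3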
# particulars: FluxOR fluorescence, at 10 µM
About 2,800 (0.82%) of roughly 340,000 compounds were called active.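 The calls were made as follows: active = B-score under library mean minus 4 SD, starting fluorescence ratio at most library mean plus 5 SD; inactive = the rest.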 The full list was thinned out, with actives kept by preference.
Permitted responses: TRUE (active), FALSE (inactive)

Completed entries (count: 6):
>>> category("O=C(NNS(=O)(=O)c1ccccc1C(F)(F)F)c1cc2ncc(C(F)(F)F)cc2s1")
"FALSE"
>>> category("O=S(=O)(O)CCN1CCOCC1")
"FALSE"
>>> category("COc1ccc(CNC(=O)C2CCC(CNc3c(N4CCOCC4)c(=O)c3=O)CC2)cc1 (centres undefined)")
"FALSE"
>>> category("C#CCOCCOCCOCCNc1nc(N2CCN(C(=O)C(Cc3ccc(O)cc3)n3cc(C(N)CC(C)C)nn3)CC2)nc(N2CCN(C(=O)C(Cc3ccc(O)cc3)n3cc(C(N)C(C)CC)nn3)CC2)n1 (centres undefined)")
"FALSE"
>>> category("Cc1cc(OCC(=O)NC2CCN(C)CC2)ccc1[N+](=O)[O-]")
"FALSE"
>>> category("COc1ccc(Nc2ncnc3ccc(Br)cc23)c(OC)c1")
"FALSE"

Given "Cn1ccnc1-c1nnn(-c2ccc(F)cc2)n1" , state the outcome it received in this test. FALSE

Given O=S(=O)(NC1CCCCC1N1CCCCC1)c1ccc(Cl)cc1 (centres undefined) , state the outcome it received in this test. FALSE

Given "CCOc1ccccc1NC(=O)c1cc(S(=O)(=O)N2CCC3(CC2)OCCO3)ccc1F" , state the outcome it received in this test. FALSE

Given "COc1ccccc1OCc1nnc(SCC(N)=O)n1-c1ccccc1" , state the outcome it received in this test. FALSE

Given O=S(=O)(NC1CCCCC1N1CCN(c2ccccc2F)CC1)c1ccccc1 (centres undefined) , state the outcome it received in this test. TRUE

Given "CCN(CC(=O)Nc1cc(Cl)ccc1C)C(=O)Cn1c(=O)cnc2ccccc21" , state the outcome it received in this test. FALSE
